- TEST TARGET: UniProt P22748
- Sequence (P22748 19-312): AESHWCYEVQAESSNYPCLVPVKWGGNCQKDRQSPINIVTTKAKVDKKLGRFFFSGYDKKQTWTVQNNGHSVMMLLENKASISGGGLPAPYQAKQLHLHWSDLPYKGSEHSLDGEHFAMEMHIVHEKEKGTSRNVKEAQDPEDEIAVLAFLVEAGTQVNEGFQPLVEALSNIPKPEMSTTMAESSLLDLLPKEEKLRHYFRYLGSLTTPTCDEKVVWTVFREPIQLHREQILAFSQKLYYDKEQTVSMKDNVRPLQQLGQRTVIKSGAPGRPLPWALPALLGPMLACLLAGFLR
- PROCEDURE SUMMARY: CA inhibition, stopped-flow CO2 hydration assay
pKi: −log10 of the molar value.
MEASUREMENT KIND: pKi

[Q] Report measured pKi on UniProt P22748; entry: CC(C)NS(=O)(=O)c1ccc(OCCNCC2COc3ccccc3O2)cc1 (stereo not shown)
[A] < 5.00

###

- TEST TARGET: hCA II (Homo sapiens)
- PROCEDURE SUMMARY: CA inhibition, stopped-flow CO2 hydration assay
pKi: −log10 of the molar value.
MEASUREMENT KIND: pKi

[Q] Provide one value: measured pKi of CC(C)NS(=O)(=O)c1ccc(OCCNCC2COc3ccccc3O2)cc1 (stereo not shown) [Compound 5]
[A] < 5.00

###

- TEST TARGET: hCA IX (Homo sapiens, UniProt Q16790)
- PROCEDURE SUMMARY: CA inhibition, stopped-flow CO2 hydration assay
- ASSAY SETUP: read-out: Ki CA IX; stopped-flow technique, mean from three assays
pKi: −log10 of the molar value.
MEASUREMENT KIND: pKi

Please review the following examples before continuing.
>>> observed_result("CN(C)S(=O)(=O)c1ccc(OCCNCC2COc3ccccc3O2)cc1 (stereo not drawn)")
"< 5.00"
>>> observed_result("CC(C)CS(=O)(=O)Nc1ccc(OCCNCC2COc3ccccc3O2)cc1 (stereo not drawn)")
"< 5.00"
>>> observed_result("NS(=O)(=O)c1ccc(OCCNCC2COc3ccccc3O2)cc1 (stereo not drawn)")
7.69
>>> observed_result("N[C@@H](CC(=O)N1CCn2c(nnc2C(F)(F)F)C1)Cc1cc(F)c(F)cc1F [Sitagliptin, reference compound]")
"< 5.00"
>>> observed_result("CNS(=O)(=O)c1ccc(OCCNCC2COc3ccccc3O2)cc1 (stereo not drawn)")
"< 5.00"

Proceed to the following item.
[Q] Provide one value: measured pKi of CS(=O)(=O)Nc1ccc(OCCNCC2COc3ccccc3O2)cc1 (stereo not drawn)
[A] < 5.00

###

- TEST TARGET: purified recombinant human DPP IV (Homo sapiens, UniProt P27487)
- Construct: purchased Cayman Chemicals (Michigan)
- Sequence (P27487 whole entry): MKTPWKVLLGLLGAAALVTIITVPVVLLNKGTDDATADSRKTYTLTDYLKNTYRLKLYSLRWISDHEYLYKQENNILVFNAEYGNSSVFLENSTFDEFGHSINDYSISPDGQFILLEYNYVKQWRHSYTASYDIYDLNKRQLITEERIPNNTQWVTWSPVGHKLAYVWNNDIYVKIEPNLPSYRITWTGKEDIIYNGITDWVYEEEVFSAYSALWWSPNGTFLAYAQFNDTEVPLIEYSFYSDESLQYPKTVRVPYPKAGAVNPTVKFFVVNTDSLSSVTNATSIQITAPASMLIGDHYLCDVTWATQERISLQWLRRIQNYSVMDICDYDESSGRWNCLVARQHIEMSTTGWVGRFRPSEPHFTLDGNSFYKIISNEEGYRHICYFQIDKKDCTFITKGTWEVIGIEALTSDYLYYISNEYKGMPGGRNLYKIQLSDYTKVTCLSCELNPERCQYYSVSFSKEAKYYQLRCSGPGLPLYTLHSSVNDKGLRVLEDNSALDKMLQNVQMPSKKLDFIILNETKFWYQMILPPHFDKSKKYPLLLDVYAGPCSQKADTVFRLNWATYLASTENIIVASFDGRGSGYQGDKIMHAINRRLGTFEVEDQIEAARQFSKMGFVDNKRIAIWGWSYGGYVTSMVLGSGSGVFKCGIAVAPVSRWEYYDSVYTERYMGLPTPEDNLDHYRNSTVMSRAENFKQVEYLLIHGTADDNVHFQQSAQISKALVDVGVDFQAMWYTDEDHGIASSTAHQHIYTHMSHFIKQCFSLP
- PROCEDURE SUMMARY: In vitro DPP IV activity assay (fluorogenic Gly-Pro-AMC substrate)
- Assay type: biochemical
- ASSAY SETUP: mean from three different assays
For each entry below, report its pIC50 value.
Answers are plain numbers, as −log10 of the molar value.

>>> observed_result("COc1cc(S(N)(=O)=O)cc(OC)c1OCCC(N=[N+]=[N-])C1COc2ccccc2O1 (centres unmarked)")
7.48
>>> observed_result("COc1cc(S(N)(=O)=O)cc(OC)c1OCCC(N)C1COc2ccccc2O1 (centres unmarked)")
7.55
>>> observed_result("[N-]=[N+]=NC(CCOc1ccc(S(N)(=O)=O)cc1)C1COc2ccccc2O1 (centres unmarked)")
3.17
>>> observed_result("NC(CCOc1ccc(S(N)(=O)=O)cc1)C1COc2ccccc2O1 (centres unmarked)")
7.31

Proceed to the following item.
[Q] Report measured pIC50 on purified recombinant human DPP IV (Homo sapiens, UniProt P27487); entry: COc1cc(S(N)(=O)=O)ccc1OCCC(N)C1COc2ccccc2O1 (centres unmarked)
[A] 4.24

###

- TEST TARGET: hCA IX (Homo sapiens)
- PROCEDURE SUMMARY: CA inhibition, stopped-flow CO2 hydration assay
- ASSAY SETUP: read-out: Ki CA IX; stopped-flow technique, mean from three assays
For each entry below, report its pKi value.
Give bare numbers, as −log10 of the molar value.

I have 2 compounds here; please give me pKi for each one.
1. COc1cc(S(N)(=O)=O)cc(OC)c1OCCC(N)C1COc2ccccc2O1 (stereo not drawn)
2. [N-]=[N+]=NC(CCOc1ccc(S(N)(=O)=O)cc1)C1COc2ccccc2O1 (stereo not drawn)

[A]
[6.02, 6.48]

I have 4 compounds here; please give me pKi for each one.
1. NC(CCOc1ccc(S(N)(=O)=O)cc1)C1COc2ccccc2O1 (stereo not drawn)
2. COc1cc(S(N)(=O)=O)cc(OC)c1OCCC(N=[N+]=[N-])C1COc2ccccc2O1 (stereo not drawn)
3. COc1cc(S(N)(=O)=O)ccc1OCCC(N)C1COc2ccccc2O1 (stereo not drawn)
4. COc1cc(S(N)(=O)=O)ccc1OCCC(N=[N+]=[N-])C1COc2ccccc2O1 (stereo not drawn)

[A]
1. 6.88
2. 6.13
3. 7.51
4. 6.96

This collection of values is drawn from paper PMC9937538.
